- target-or-test-system: recombinant full length HPK-1 enzyme (Homo sapiens (Human))
- assay-summary: HPK-1 biochemical enzyme assay (ADP-Glo kinase inhibition)
- test-conditions: recombinant full length HPK-1 6.8 nM, 10 μM ATP, 12.5 μM MBP, 30 mins at 25° C.
measurement-label: IC50

molecule=Cc1c(Nc2cc[nH]c(=O)c2C(=O)Nc2ccc(N3CCN(C(=O)N4CCC(F)(F)C4)CC3)cc2)cnc2c1NCCO2 measurement_label=IC50 measurement="≤ 0.01 µM"

Param item = Cc1c(Nc2cc[nH]c(=O)c2C(=O)Nc2ccc(N3CCN(C(=O)C(C)C)CC3)cc2)cnc2c1NCC(C)O2 (stereo not drawn) ; retrieve measured IC50.
0.01 to 0.1 µM

# repeat for "COCc1cc(N2CCN(c3ccc(NC(=O)c4c(Nc5cnc6c(c5C)NCCO6)cc[nH]c4=O)cc3)CC2)ccn1"
0.01 to 0.1 µM

----------
- target-or-test-system: recombinant full length HPK-1 enzyme (Homo sapiens (Human), UniProt Q92918)
- Sequence (Q92918 whole entry, species assumed): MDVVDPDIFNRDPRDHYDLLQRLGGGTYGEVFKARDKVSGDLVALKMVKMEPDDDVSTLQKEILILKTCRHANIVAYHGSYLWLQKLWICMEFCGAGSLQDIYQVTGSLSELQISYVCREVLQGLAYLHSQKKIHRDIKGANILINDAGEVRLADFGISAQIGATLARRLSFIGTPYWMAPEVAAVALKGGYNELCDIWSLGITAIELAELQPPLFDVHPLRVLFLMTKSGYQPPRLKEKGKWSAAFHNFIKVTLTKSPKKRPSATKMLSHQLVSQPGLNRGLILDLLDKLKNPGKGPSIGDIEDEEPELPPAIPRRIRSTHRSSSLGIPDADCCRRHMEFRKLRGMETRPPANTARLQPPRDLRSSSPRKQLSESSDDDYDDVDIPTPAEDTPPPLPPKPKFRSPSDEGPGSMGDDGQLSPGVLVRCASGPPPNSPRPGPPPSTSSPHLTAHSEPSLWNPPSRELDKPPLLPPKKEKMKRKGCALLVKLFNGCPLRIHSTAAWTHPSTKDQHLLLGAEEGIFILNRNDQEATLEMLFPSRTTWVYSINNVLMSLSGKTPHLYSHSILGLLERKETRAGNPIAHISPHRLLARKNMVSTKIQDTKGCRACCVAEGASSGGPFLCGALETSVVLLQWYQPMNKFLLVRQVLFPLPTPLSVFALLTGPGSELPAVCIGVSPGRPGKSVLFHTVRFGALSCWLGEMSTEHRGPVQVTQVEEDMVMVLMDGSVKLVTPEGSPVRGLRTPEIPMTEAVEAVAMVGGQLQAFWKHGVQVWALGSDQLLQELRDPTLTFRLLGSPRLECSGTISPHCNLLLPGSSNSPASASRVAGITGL
- assay-summary: HPK-1 biochemical enzyme assay (ADP-Glo kinase inhibition)
- test-conditions: recombinant full length HPK-1 6.8 nM, 10 μM ATP, 12.5 μM MBP, 30 mins at 25° C.
pIC50: −log10 of the molar value.
pIC50 by entry:

Param item = Cc1c(Nc2nc[nH]c(=O)c2C(=O)Nc2ccc(N3CCN(C)CC3)cc2)cnc2c1NCCO2 [Example 98] ; retrieve measured pIC50.
7.00 to 8.00

# repeat for Cc1c(Nc2cc[nH]c(=O)c2C(=O)Nc2ccc(N3CCN4CCC[C@@H]4C3)cc2)cnc2c1NCCO2 [Example 329]
≥ 8.00

# repeat for Cc1c(Nc2cc[nH]c(=O)c2C(=O)Nc2ccc3c(c2)OCC(=O)N3)cnc2c1NCCO2 [Example 269]
7.00 to 8.00

# repeat for Cc1c(Nc2cc[nH]c(=O)c2C(=O)Nc2ccc(N3CCNCC3)cc2)cnc2c1NCCO2 [Example 139]
≥ 8.00

# repeat for Cc1c(Nc2cc[nH]c(=O)c2C(=O)Nc2ccc3c(c2)NC(=O)CO3)cnc2c1NCCO2 [Example 221]
6.00 to 7.00

# repeat for CNC(C)C(=O)N1CCN(c2ccc(NC(=O)c3c(Nc4cnc5c(c4C)NCCO5)cc[nH]c3=O)cc2)CC1 (stereo not shown) [Example 354]
7.00 to 8.00

----------
pIC50 by entry:
- target-or-test-system: recombinant full length HPK-1 enzyme (Homo sapiens (Human))
- assay-summary: HPK-1 biochemical enzyme assay (ADP-Glo kinase inhibition)
- test-conditions: recombinant full length HPK-1 6.8 nM, 10 μM ATP, 12.5 μM MBP, 30 mins at 25° C.
pIC50: −log10 of the molar value.

structure_smiles_string=Cc1c(Nc2cc[nH]c(=O)c2C(=O)Nc2ccc(N3CCN(C(=O)N4CC5(COC5)C4)CC3)cc2)cnc2c1NCCO2 measurement="7.00 to 8.00"
structure_smiles_string=Cc1c(Nc2cc[nH]c(=O)c2C(=O)Nc2ccc(N3CCC(C(=O)O)CC3)cc2)cnc2c1NCCO2 measurement="7.00 to 8.00"
structure_smiles_string=Cc1c(Nc2cc[nH]c(=O)c2C(=O)Nc2ccc(N3CCN(C)CC3)c(F)c2)cnc2c1NCCO2 measurement="≥ 8.00"

Proceeding to the next molecule to report its pIC50.
Tell me reported pIC50 for "CCN1C(=O)C(C)(C)c2cc(NC(=O)c3c(Nc4cnc5c(c4C)NCCO5)cc[nH]c3=O)ccc21" , tested with recombinant full length HPK-1 enzyme (Homo sapiens (Human)).
6.00 to 7.00

These entries and their values trace back to patent US20250282794A1.
